Data credit: paper PMC12040169

Experiment: in vitro
Conditions: human, hela cells, % viability
Lab note: anything with viability at 28.5 h, 10 µM below 90% is marked True; values at 90% or higher are marked False.

Completed entries (count: 2):
Cc1nccn1CC1(O)CCN(Cc2ccccc2F)CC1 | False
C=CCN1C(=O)CC2(C1=O)C(=O)N(CCCn1c(=O)c3c(ncn3C)n(C)c1=O)c1ccc(OC)cc12 (centres unmarked) | False

INPUT: Just wondering, is viability at 28.5 h, 10 µM of O=C(O)Cc1csc(NC(=O)c2ccc(N3CCCCC3)c([N+](=O)[O-])c2)n1 below 90%?
OUTPUT: True

INPUT: Now consider COc1ccc(C2=C3NN=C(N)N3NN2)cc1 and answer again.
OUTPUT: True

INPUT: Now consider CCCCOc1nccnc1-c1cnc(OC)nc1OC and answer again.
OUTPUT: False

---

Assay: in vitro
Conditions: human, hela cells, % viability
Reported Metric: viability at 28.5 h, 10 µM (%)
Just the number please, in %, no unit attached.

Please review the following examples before continuing.
Cc1n[nH]c(C)c1CCC(=O)N/N=C/c1ccc(O)cc1 [CBK262927] | 109
O=C(c1c(F)cc(-c2cncc(-c3ccc(O)cc3)n2)cc1F)N1CCOCC1 [CBK131973] | 90.5
O=C1CCCN1c1ccc(S(=O)(=O)N2CCN(c3ccccn3)CC2)cc1 [CBK268237] | 84.5
CCCNC(=O)C[C@@H]1CCN(S(=O)(=O)c2c(C)noc2C)C[C@@H]1CC [CBK288780] | 103
COc1ccc(C(=O)O)cc1S(=O)(=O)N1CCCCCC1 [CBK261742] | 99.2
CC1CCCCN1Cc1nc2c(c(=O)n(C)c(=O)n2C)n1CCc1ccccc1 (stereo not drawn) [CBK269189] | 117

INPUT: Endpoint output: viability at 28.5 h, 10 µM of O=C(Cn1nc(-c2cc3c(s2)CCC3)oc1=O)NC1CC1 [CBK283800] . Value?
OUTPUT: 101

INPUT: Now consider CN1C(C(=O)O)=CC(c2ccc(F)cc2)=NS1(=O)=O [CBK287016] and answer again.
OUTPUT: 97.7

INPUT: Now consider CC(Sc1nc2ccccc2[nH]1)C(=O)O (stereo not drawn) [CBK263063] and answer again.
OUTPUT: 101

---

Assay: in vitro
Conditions: human, hela cells, % viability
Reported Metric: viability at 28.5 h, 10 µM (%)
Just the number please, in %, no unit attached.

Please review the following examples before continuing.
CCc1ccc(NC(=O)CN(CCO)Cc2cc(Br)ccc2F)cc1 | 84.8
Cc1ccc(C(=O)C2=C(O)C(=O)N(Cc3cccnc3)C2c2cccc([N+](=O)[O-])c2)cc1 (centres unmarked) | 89.3
O=C(CSc1ccc2ccccc2n1)Nc1ccnc2ccccc12 | 78.1
O=C(C1=C(O)C(=O)N(CCCN2CCOCC2)C1c1cccs1)c1cccs1 (centres unmarked) | 111
O=C1CC(c2ccccc2)=NN1c1nc(-c2ccccc2)cc(-c2ccc(F)cc2)n1 | 92.4

INPUT: Endpoint output: viability at 28.5 h, 10 µM of CN(C)CCN(Cc1ccccc1)C(=O)NCc1c(Cl)cccc1Cl . Value?
OUTPUT: 97.3

INPUT: Now consider CC(=O)NCCSc1ccc(C(F)(F)F)cn1 and answer again.
OUTPUT: 94.3

INPUT: Now consider COc1ccc(C(=O)N2CCN(Cc3cc(OC)ccc3OC)CC2)cc1 and answer again.
OUTPUT: 88.8

INPUT: Now consider Cn1nc(-c2ccc(S(=O)(=O)Nc3nc(-c4cccnc4)cs3)s2)cc1C(F)(F)F and answer again.
OUTPUT: 88.4

INPUT: Now consider Nc1ncc(-c2cccc3cccnc23)nc1NC1CCCCC1 and answer again.
OUTPUT: 107

---

Assay: in vitro
Settings: human, hela cells, % viability
Lab note: anything with viability at 28.5 h, 10 µM below 90% is marked rule met; values at 90% or higher are marked rule not met.

Completed entries (count: 4):
CN1CCN(C(=O)c2ccc(-c3ccccc3)nc2N(C)C)CC1 | rule met
O=C1CCC(N2CCN(c3ncnc4ccccc34)CC2)CCN1 (stereo not drawn) | rule not met
CN1CCC[C@H]1C(=O)N1CCC(Cn2cncn2)(C2CCCCC2)CC1 | rule not met
Fc1ccc(OCCNCC2NCCc3c2[nH]c2ccccc32)cc1 (stereo not drawn) | rule not met

INPUT: Just wondering, is viability at 28.5 h, 10 µM of CN(C(=O)c1ccccc1C(=O)O)C1CC(C)(C)NC(C)(C)C1 below 90%?
OUTPUT: rule not met

INPUT: Now consider CC(C)(C)c1ccc(CN2CCN(C(=O)c3ccc(-c4ccc(S(C)(=O)=O)cc4)cn3)CC2)cc1 and answer again.
OUTPUT: rule not met

---

Assay: in vitro
Conditions: human, hela cells, % viability
Reported Metric: viability at 28.5 h, 10 µM (%)
Just the number please, in %, no unit attached.

O=[N+]([O-])c1ccc(S(=O)(=O)NCCc2nc3ccccc3[nH]2)cc1 | 112
Nc1cccc(-c2cncc(N(CCO)CCO)n2)c1 | 95.5
CN(C)CCCOC(=O)CN1c2ccccc2CCc2ccccc21 [CBK022863C] | 97
O=[N+]([O-])c1ccccc1S(=O)(=O)Nc1ccc(S(=O)(=O)Nc2ccccc2)cc1 | 106
COC(=O)NC(=S)Nc1ccc2c(c1)OCCO2 | 79

INPUT: Endpoint output: viability at 28.5 h, 10 µM of NS(=O)(=O)c1ccc(NCc2ccccc2OCc2ccccc2F)cc1 . Value?
OUTPUT: 91.8

INPUT: Now consider O=C(CSc1nnc(Cc2cccc3ccccc23)n1-c1ccccc1)N1CCc2ccccc21 and answer again.
OUTPUT: 99.1

INPUT: Now consider CCOc1cc(NC2CCN(C(=O)C3CCCC3)C2)ncn1 (stereo not shown) and answer again.
OUTPUT: 106

INPUT: Now consider Cc1nc2c(C(=O)NCCNC(=O)c3cccnc3)ncn2c(C)c1Cc1ccc(F)c(Cl)c1 and answer again.
OUTPUT: 89.8

INPUT: Now consider O=C(CN1CCN(Cc2ccc3c(c2)OCO3)CC1)Nc1ccc(SC(F)(F)F)cc1 and answer again.
OUTPUT: 108

INPUT: Now consider O=P(O)(CCc1ccncc1)CN1CCOCC1 and answer again.
OUTPUT: 89.3

---

Form field: viability at 28.5 h, 10 µM (one value per entry).
Assay: in vitro
Settings: human, hela cells, % viability
Just the number please, in %, no unit attached.

COC(=O)c1cn([C@H]2CO[C@H]3[C@@H]2OC[C@@H]3NC(=O)Nc2ccc(OC)cc2)nn1 | 94.2

INPUT: Endpoint output: viability at 28.5 h, 10 µM of O=C(O)CCCN1C(=O)/C(=C/c2ccccc2[N+](=O)[O-])SC1=S . Value?
OUTPUT: 90.4

INPUT: Now consider Cc1ccc(C(=O)CCC(=O)N2CCCC2c2ccc(F)cc2)cc1 (stereo not drawn) and answer again.
OUTPUT: 96.2

INPUT: Now consider CC1(Cn2ccnc2-c2ccccc2C(=O)O)CCCO1 (stereo not drawn) and answer again.
OUTPUT: 88.8

INPUT: Now consider CCCC/C=C/c1cn2ccnc2c(NCCc2ccccn2)n1 and answer again.
OUTPUT: 106

INPUT: Now consider CN(CC(=O)Nc1nnc[nH]1)S(=O)(=O)c1cc(Cl)ccc1Cl and answer again.
OUTPUT: 97

---

Form field: viability at 28.5 h, 10 µM (one value per entry).
Assay: in vitro
Conditions: human, hela cells, % viability
Just the number please, in %, no unit attached.

Please review the following examples before continuing.
CC1CCCN(Cc2nc3c([nH]2)c(=O)n(C)c(=O)n3C)C1 (centres unmarked) | 88.7
CCc1nc(C(N)=O)c2[nH]c(=O)n(-c3ccccc3F)c2n1 | 107
Cc1ccc(C(=O)C2=C(O)C(=O)N(CCCn3ccnc3)C2c2cccc([N+](=O)[O-])c2)cc1 (centres unmarked) | 115
CN(C)C(=O)c1cc(-c2ccccc2)cnc1N(C)S(C)(=O)=O | 105
Cc1cc(C(=O)NC(Cn2ccnc2)c2ccccc2)cc(=O)[nH]1 (centres unmarked) | 94
COc1ccc2c(c1)C1(CC(=O)N(CC(=O)N(C)C)C1=O)C(=O)N2CCCN(C)S(C)(=O)=O (centres unmarked) | 118

INPUT: Endpoint output: viability at 28.5 h, 10 µM of N#Cc1ccc(Oc2cccc(/N=C/c3ccc(/C=N/c4cccc(Oc5ccc(C#N)cc5)c4)cc3)c2)cc1 . Value?
OUTPUT: 93.7

INPUT: Now consider Cc1ccc(S(=O)(=O)N(CCC#N)CCN2CCCC2)cc1 and answer again.
OUTPUT: 119

---

Experiment: in vitro
Details: human, hela cells, % viability
Reported Metric: viability at 28.5 h, 10 µM (%)
Just the number please, in %, no unit attached.

Please review the following examples before continuing.
Nc1ccc(-c2ncccc2O)cc1 [CBK262937C] | 106
CC(C)(C)c1nnc(NC(=O)c2ccc(F)cc2)s1 [CBK086855] | 89
CCOC(=O)C1CCN(S(=O)(=O)c2ccc(NC(C)=O)c(Cl)c2)CC1 [CBK043748] | 93.5
COc1cccc(/C=C2/SC(=S)N(C)C2=O)c1OCCCOc1ccc(C)cc1C [CBK264446] | 102

INPUT: Endpoint output: viability at 28.5 h, 10 µM of O=C(CSc1ncn(-c2ccccc2)n1)Nc1cc(Cl)cc(Cl)c1 [CBK268261] . Value?
OUTPUT: 92

INPUT: Now consider Cc1occc1-c1nn(C2CCNCC2)c(=O)o1 [CBK284757] and answer again.
OUTPUT: 98.5
